The origin of these recorded values is the EternaBench riboswitch data.

# System: MS2 coat protein
# method_description: apparent Kd, MS2 coat protein; higher = weaker binding; RNA-MaP array
# assay_conditions: ligand present: flavin mononucleotide; designed as: OFF switch for flavin mononucleotide
apparent Kd overview
The reply should be a number in nM, with the unit left off.

Please give the measured apparent Kd for this sequence: `GACAUGAGGAUCACCCAUGUGAAAUUCAUGGCGAUAACAUCUGAGGAUAUGUGCAGCCGAGGAAGACAGAAGGCAGAAACACAA`
119

Another sequence to check: `AUACUAAACAUGAGGAUCACCCAUGUGACGUCAGGUCAGUUGAGAAGGCUAGGGAUGCUAGAUGUAGAGGAUAUCAGCGACGGA`
9.76

Next record, please: `CUACCAAAUUGAGGAUAUAGCCUGGGAGAACCAAGUUCCAUGAAAUACAUGAGGAUCACCCAUGUCUAGAAGGCAACAAUGGCC`
145

Continue with `UAUUGUUUAGGAUAUACAUGAGGAUCACCCAUGUCAACGACCGUUAUAAAAUCUAAGUGUAGAAGGAAACGCCC`
12.1

// repeat for `CCGCGCACUGGAGGAUAUAAUCGAACAUGAGGAUCACCCAUGUUAGACGUGGUACGAGCGUUCCAUUAGAAGGCCACUCUGCGU` and report
52.8

Continue with `GUCUCCUGAGAGAAGGCUCGCUCCGAGGAAUAGAGAGGAUAUCUACAUGAGGAUCACCCAUGUUGCCGAGGGAAAUGCACGGGU`
90.5

====

# System: MS2 coat protein
# method_description: apparent Kd, MS2 coat protein; higher = weaker binding; RNA-MaP array; FMN 200 µM where present
# assay_conditions: ligand present: flavin mononucleotide; designed as: OFF switch for flavin mononucleotide
Entries and their apparent Kd
Reply with just the number (in nM).

GCCAGGAUGUAAGGAUAUGCUGAGGAAUACUCAGCAGAAGGUACAUGAGGAUCACCCAUGUAAUCCUAAUAAUAAUAACCUGGC ... 16.6
AACGCGUCAGGAUAUGCCAUAAAUUACCUAAUACAACCAUAGCAGAAGGGACAUGAGGAUCACCCAUGUAAAUA ... 25.2
AAAAGGUCAGGAUAUGCGAGCGGCAGGGAGGCAGGUCGGUGGCAGAAGGGACAUGAGGAUCACCCAUGUUAAAA ... 34.1
UUAUUAUAUGUAGGAUAUGCAUAUUAUUAUUAUGCAGAAGGACAUGAGGAUCACCCAUGUAUAUUAUUAUUGUAUAUUAUAUAU ... 46.1
GGAUAGGACAGAGGAUAUACGUGCUAGAGAUACUCGCAAAAUUUCCUCACAUGAGGAUCACCCAUGUAGAAGGCUGUCCUAUCG ... 436

API: value(readout= apparent Kd, system= MS2 coat protein, query= `CGCGCGCGUGUUAGGAUAUAUGUGUGUGGUUAUUUAUAGAAGGGACAUGAGGAUCACCCAUGUGUGUGGGCGCG` )
489

And then `UGGCUACAUGAGGAUCACCCAUGUCAGGAUAUGCCGUUGGAUUGACAUCGUCGUACGGGUAGAAGGGACUGCGU` , what is it?
58.3

// next record `CUCUUGUCAGGAUAUUAUGGACGAAGGCAGGGCCGCGUCAGUGAGAAGGGACAUGAGGAUCACCCAUGUAAAAU`
74.6
